Just for reference, paper PMC12596218 is where these values come from.

# Study system: NTCP M290S (NTCP→ASBT) (Homo sapiens, UniProt Q14973, M290S)
# Construct: stably transfected with the full open reading frames of human NTCP, ASBT, SOAT, OATP1B1, OATP1B3, OATP2B1, and murine Asbt (mAsbt); expressed in transfected cells; host or cells: HEK293, stably transfected
# Sequence (Q14973 whole entry M290S): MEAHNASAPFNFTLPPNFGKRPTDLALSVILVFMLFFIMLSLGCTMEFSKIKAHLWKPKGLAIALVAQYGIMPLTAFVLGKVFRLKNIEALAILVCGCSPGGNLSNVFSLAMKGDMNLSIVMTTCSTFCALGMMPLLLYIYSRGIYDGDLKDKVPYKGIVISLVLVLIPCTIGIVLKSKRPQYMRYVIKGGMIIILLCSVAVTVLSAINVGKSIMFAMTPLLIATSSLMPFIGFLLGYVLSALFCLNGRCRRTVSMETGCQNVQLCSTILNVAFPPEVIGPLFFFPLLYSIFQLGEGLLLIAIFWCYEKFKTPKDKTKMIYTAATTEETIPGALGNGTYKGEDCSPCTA
# Test name: [3H]TC transport and inhibition assay, NTCP→ASBT mutant in HEK293 cells
# Type: cell-based
# Condition parameters: 1 μM [3H]TC, 10 min
# Protocol: Amplification was performed on a peqSTAR XS PEQLAB PCR cycler (Peqlab) with Pfu DNA polymerase (M774A; Promega) in 18 cycles under the following conditions: initial denaturation for 2 min at 95°C, denaturation for 30 s at 95°C, annealing for 1 min at 55°C, extension for 8 min and 30 s at 72°C, final elongation for 10 min at 72°C and final hold at 4°C. […]
Quantity: Inhibition curves and AUC of NTCP→ASBT mutant compared to wild-type NTCP

CCCCC1(CCCC)CS(=O)(=O)c2ccc(N(C)C)cc2[C@@H](c2ccc(OCCCC[N+]34CCN(CC3)CC4)cc2)[C@H]1O: still inactive
CCCC[C@]1(CC)CS(=O)(=O)c2cc(CNC(CC(=O)O)CC(=O)O)c(OC)cc2[C@@H](c2ccccc2)N1: still inactive
